src = ChEMBL document CHEMBL4834431

- Tested on: HepG2
- test-description: Cytotoxicity against human HepG2 cells expressing NTCP assessed as reduction in cell viability at 10 uM after 48 hrs by alamar blue assay
- Assay type: cell-based
- measurement-setup: hepg2, 48 h
test-readout: Activity

>>> result("C[C@@H]1CCC(=O)NCCNC(=O)CC[C@@H](C)[C@H]2CC[C@H]3[C@@H]4[C@@H](O)C[C@@H]5C[C@@H](CC[C@]5(C)[C@H]4CC[C@]23C)NC(=O)CCCC(=O)N[C@@H]2CC[C@@]3(C)[C@@H](C2)C[C@H](O)[C@@H]2[C@@H]3CC[C@]3(C)[C@@H]1CC[C@@H]23")
"Non-Toxic"
>>> result("C[C@H](CCCN(CC[C@@H](C)[C@H]1CC[C@H]2[C@@H]3[C@@H](O)C[C@@H]4C[C@H](O)CC[C@]4(C)[C@H]3CC[C@]12C)CCS(=O)(=O)O)[C@H]1CC[C@H]2[C@@H]3[C@@H](O)C[C@@H]4C[C@H](O)CC[C@]4(C)[C@H]3CC[C@]12C")
"Non-Toxic"
